Each entry below lists one item and its recorded self-cleavage value.
B1: CPEB3 Ribozyme (parent)
chain: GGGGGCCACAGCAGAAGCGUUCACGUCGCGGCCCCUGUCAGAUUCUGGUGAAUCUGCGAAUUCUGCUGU

# Variants of: B1
# experimentalDetails: self-cleavage, relative activity (ratio to wild type); higher = more cleavage; co-transcriptional
readoutKind: self-cleavage

>  <macromoleculeSequence>
GGGGGCCACAGCAGAAGCGUUCACGUCGCGGCUCCUGUCAGAUUCUGGUGAAUCUGCGAAUUCUGCAGU [C33U U67A]

>  <numericValue>
0.971

$$$$
>  <macromoleculeSequence>
UGGGGCCACAGCACAAGCGUUCACGUCGCGGCCCCUGUCAGAUUCUGGUGAAUCUGCGAAUUCUGCUGU [G1U G14C]

>  <numericValue>
0.133

$$$$
>  <macromoleculeSequence>
GGGGGCCACAGCAGAAGCGUUCACGUCGCGGCCUCUGUCAGAUUCUGGGGAAUCUGCGAAUUCUGCUGU [C34U U49G]

>  <numericValue>
0.985

$$$$
>  <macromoleculeSequence>
GGGGGCCCCAGCAGAAGCGUUCACGUCGCGGCCCCUGUCAGAUUCUGGUGAAUCUGGGAAUUCUGCUGU [A8C C57G]

>  <numericValue>
0.446

$$$$
>  <macromoleculeSequence>
GGGGGCCACAGCAGAAGCGUUCACGUCGCGCCCCCAGUCAGAUUCUGGUGAAUCUGCGAAUUCUGCUGU [G31C U36A]

>  <numericValue>
0.155

$$$$
>  <macromoleculeSequence>
GGGGGACACAGCAGAAGCGUUCACGUCGCGGCCCCUGUCAGAUUCUGCUGAAUCUGCGAAUUCUGCUGU [C6A G48C]

>  <numericValue>
0.693

$$$$
>  <macromoleculeSequence>
GGGGGCCACAGCAGAUGCGUUCACGUCGCGGCCCCUGUCAGAUUCUGGUGAAUCUGCGAAUUCGGCUGU [A16U U64G]

>  <numericValue>
0.545

$$$$
>  <macromoleculeSequence>
GGGGACCACAGCAGAAGCGUUCACGACGCGGCCCCUGUCAGAUUCUGGUGAAUCUGCGAAUUCUGCUGU [G5A U26A]

>  <numericValue>
0.498

$$$$
>  <macromoleculeSequence>
GGGGGCCACAGCAGAAGCGUUCACGUCGCGGCCCCUGUUAGAUUCUGAUGAAUCUGCGAAUUCUGCUGU [C39U G48A]

>  <numericValue>
0.998

$$$$
>  <macromoleculeSequence>
GGGGGCCACAGCAGAAGCGUUCACGUCGCGGCCACAGUCAGAUUCUGGUGAAUCUGCGAAUUCUGCUGU [C34A U36A]

>  <numericValue>
0.229

$$$$
>  <macromoleculeSequence>
GGGGGCCACAGCAGAAGCCUUCACGUCGCGGCCCCUGUCAGAUUCUGGUAAAUCUGCGAAUUCUGCUGU [G19C G50A]

>  <numericValue>
0.147

$$$$
>  <macromoleculeSequence>
GGGGGCCACAGCAGAAGGGUUCACGUCGCGGCCCCUGUCAGAUUCAGGUGAAUCUGCGAAUUCUGCUGU [C18G U46A]

>  <numericValue>
0.227

$$$$
>  <macromoleculeSequence>
GGGGGCCACAGCAGAAGCGUUCACGUCGCCGCCCCUGUCAGAUUCUGGUGAAUCUGCGUAUUCUGCUGU [G30C A59U]

>  <numericValue>
0.295

$$$$
>  <macromoleculeSequence>
GGGGGCCACAGCAGAAGCGUUCACGUCGCGGCCCCUGUCAGAUUCUGGUGAAUCAGCGAAUUCUGCCGU [U55A U67C]

>  <numericValue>
0.906

$$$$
>  <macromoleculeSequence>
GGGGGCCACAGCAGAAGCGUUCACGUCGCGGCCCCUGUCAGAUUCUGGUGGAUCUGAGAAUUCUGCUGU [A51G C57A]

>  <numericValue>
0.399

$$$$
>  <macromoleculeSequence>
GGGGGCCACAGCAGAAGCGUUCACGUCGCGGCCCCUGGCAGAUUCUGGAGAAUCUGCGAAUUCUGCUGU [U38G U49A]

>  <numericValue>
0.178

$$$$
>  <macromoleculeSequence>
GGGGGCCACAGCAGAAGCGUUCACGUCGCGGCCCCUGUCAGAUUCUGGUGAAUCUGAGAUUUCUGCUGU [C57A A60U]

>  <numericValue>
0.415

$$$$
>  <macromoleculeSequence>
GGGGGCCACAGCAGAAAAGUUCACGUCGCGGCCCCUGUCAGAUUCUGGUGAAUCUGCGAAUUCUGCUGU [G17A C18A]

>  <numericValue>
0.116

$$$$
>  <macromoleculeSequence>
GGGGGCCACAGCAGAAGCGUUCACGUCGUGGCCCCUGUCAGAUUCUGGUGAAUCUGCGAAUUCUCCUGU [C29U G65C]

>  <numericValue>
0.272

$$$$
>  <macromoleculeSequence>
GGGGGCCCCAGCAGAAGCGUUCACGUCGCGGCCCCUGUCAGAUUCUGGUGAAUCUGCGAAUUCUGCUCU [A8C G68C]

>  <numericValue>
1

$$$$
>  <macromoleculeSequence>
GGGGGCCACAGCAGAAGCGUUCACGUCGCGGCACCUGUCAGAUUCUGGUGUAUCUGCGAAUUCUGCUGU [C33A A51U]

>  <numericValue>
0.46

$$$$
>  <macromoleculeSequence>
GGGUGCCACAGCAGAAGCGUUCACGUCGCGGGCCCUGUCAGAUUCUGGUGAAUCUGCGAAUUCUGCUGU [G4U C32G]

>  <numericValue>
0.129

$$$$
